# Test: Human HepG2 cell viability assay in 384 well format
# Type: toxicity, cell-based
# Parameters: dose 125 nL, time 70.5 hour; concentration not given beside the values
# Experimental Context: HepG2 cells, read-out: Inhibition
Test Readout: cytotoxicity at 70.5 h (%)
Supply the numeric figure in %, leaving out any unit text.

Molecule	Measure Unit	Result
CN(C)c1cc(CNC(=O)c2c(F)cccc2F)ccn1	%	1.27
CC[C@H](C)Nc1nccc(-c2cnc3sc(C)c(C)n3c2=O)n1	%	23.3
Cn1ccc2c(C(=O)N3CCC(C(N)=O)CC3)cccc21	%	-2.97
Cc1nn(CCNC(C)Cn2cncn2)c(C)c1Cl (stereo unspecified)	%	7.1
COCCC1(C(=O)O)CCCN(c2cc(C)c3ccccc3n2)C1 (stereo unspecified)	%	-8.76
O=C(c1ccncc1F)N1CCOC(c2cccc(O)c2)C1 (stereo unspecified)	%	2.22
O=C(Cc1cccc(F)c1)N1CCN2C[C@H](Oc3cncnc3)C[C@H]2C1	%	-2.68
CCc1n[nH]c(NC(=O)c2ccc(Cl)cn2)c1Br	%	-2.17

Input line: # query: cytotoxicity at 70.5 h of entry O=C(c1nn(-c2ccccc2F)cc1O)N1CCCCC1
Output line: -7.27

Input line: Recorded cytotoxicity at 70.5 h for Fc1cccc(CN2CCC(c3noc(-c4ccccn4)n3)CC2)c1F , please?
Output line: -0.639

Input line: Given the molecule COc1cc(F)ccc1NC(=O)NC(C)C(=O)NC(C)(C)C (stereo unspecified) , what is its reported cytotoxicity at 70.5 h?
Output line: -4.93

Input line: Name the recorded cytotoxicity at 70.5 h for CC(C)(C)CC(=O)N1CC[C@@H]2[C@H](CC1)N(S(C)(=O)=O)CCS2(=O)=O .
Output line: -5.98

Input line: # query: cytotoxicity at 70.5 h of entry CC(C)(C)CC(=O)NCC(=O)Nc1ccn(Cc2ccccc2)n1
Output line: -11

Input line: Value lookup for cytotoxicity at 70.5 h; key = Cc1cc(=O)n(CCNS(=O)(=O)c2ccc(F)c(Cl)c2)cn1
Output line: -4.51

Input line: Which measured cytotoxicity at 70.5 h value corresponds to CCC(=O)N1CCC(c2nc(C)c3c(n2)N(C)CCC3)CC1 ?
Output line: -2.67

Input line: Given the molecule Cc1cnc(NC(=O)NC(CCO)c2cccs2)s1 (stereo unspecified) , what is its reported cytotoxicity at 70.5 h?
Output line: -3.17

Input line: Given the entry COCCn1c(-c2cccc(OC)c2)cnc1NC(=O)NCC(C)C , report its measured cytotoxicity at 70.5 h.
Output line: -18.3

Attribution: ChEMBL document CHEMBL3507680
